measured-target: D(2) dopamine receptor (Rattus norvegicus) (UniProt P61169)
Sequence (P61169 whole entry): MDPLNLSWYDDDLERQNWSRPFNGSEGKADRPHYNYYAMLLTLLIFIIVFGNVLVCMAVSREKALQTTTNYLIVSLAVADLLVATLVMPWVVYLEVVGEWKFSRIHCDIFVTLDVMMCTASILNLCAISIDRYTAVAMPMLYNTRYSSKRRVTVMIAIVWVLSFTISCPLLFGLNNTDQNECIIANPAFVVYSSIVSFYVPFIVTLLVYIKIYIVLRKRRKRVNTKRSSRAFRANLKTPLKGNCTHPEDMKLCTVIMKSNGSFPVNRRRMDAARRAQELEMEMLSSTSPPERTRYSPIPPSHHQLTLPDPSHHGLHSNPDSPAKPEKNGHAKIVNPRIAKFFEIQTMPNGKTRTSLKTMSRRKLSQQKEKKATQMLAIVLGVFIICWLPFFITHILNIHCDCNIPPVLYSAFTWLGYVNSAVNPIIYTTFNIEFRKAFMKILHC
assay-comment: Inhibitory activity against Dopamine receptor D2 of rat limbic tissue at 1 uM
Assay type: tissue-based
measurement-setup: Limbic system
Label scheme for inhibition: lower than 30% is 0.0, 30% and above is 1.0.

Data request: API: above_or_equal(metric=inhibition, cutoff=30%) for item `COc1ccccc1N1CCN(CCOC(=O)NC23C[C@H]4C[C@@H](C2)C[C@@H](C3)C4)CC1`
Data returned: 1.0

Data request: API: above_or_equal(metric=inhibition, cutoff=30%) for item `O=C(OCCCN1CCN(c2ncccn2)CC1)C12C[C@H]3C[C@@H](C1)C[C@@H](C2)C3`
Data returned: 1.0

Data request: API: above_or_equal(metric=inhibition, cutoff=30%) for item `O=C(NCCN1CCN(c2cccc(Cl)c2)CC1)NC12C[C@H]3C[C@@H](C1)C[C@@H](C2)C3`
Data returned: 1.0

Data request: API: above_or_equal(metric=inhibition, cutoff=30%) for item `O=C(NCCN1CCN(Cc2ccccc2)CC1)C12C[C@H]3C[C@@H](C1)C[C@@H](C2)C3`
Data returned: 0.0

Data request: API: above_or_equal(metric=inhibition, cutoff=30%) for item `C[C@@]12C[C@@H]3C[C@@H](CC(CC(=O)OCCN4CCN(c5cccc(Cl)c5)CC4)(C3)C1)C2`
Data returned: 0.0

Data request: API: above_or_equal(metric=inhibition, cutoff=30%) for item `O=C(NCCN1CCN(c2ncccn2)CC1)NC12C[C@H]3C[C@@H](C1)C[C@@H](C2)C3`
Data returned: 1.0

Data request: API: above_or_equal(metric=inhibition, cutoff=30%) for item `Cl.Cl.O=C(NCCN1CCN(c2ncccn2)CC1)C12CC3CC(CC1C3)C2`
Data returned: 1.0

Data request: API: above_or_equal(metric=inhibition, cutoff=30%) for item `O=C(NCCCN1CCN(c2cccc(Cl)c2)CC1)C12C[C@H]3C[C@@H](C1)C[C@@H](C2)C3`
Data returned: 1.0
